Reported TGI values for the following compounds.
System: PC-3 prostate
assay-procedure: NCI tumour cell line growth inhibition, 48 h

- compound: "COC(=O)C(COC(=O)/C=C/c1ccc(OC(C)=O)c(OC(C)=O)c1)OC(=O)/C=C/c1ccc(OC(C)=O)c(OC(C)=O)c1 (centres undefined)"
  assayed-system: "PC-3 prostate"
  modifier: "="
  TGI / µM: 23.4
- compound: "OCCN=C1Nc2ccc(Cl)cc2C(=S)N2CSC[C@@H]12"
  assayed-system: "PC-3 prostate"
  modifier: ">"
  TGI / µM: 100
- compound: "O=C1OS2(OCc3cccc4cccc2c34)c2ccccc21 (centres undefined)"
  assayed-system: "PC-3 prostate"
  modifier: ">"
  TGI / µM: 100
- compound: "N#CC1=CNc2sccc2S1(=O)=O"
  assayed-system: "PC-3 prostate"
  modifier: ">"
  TGI / µM: 100
- compound: "COc1cc2nc(-c3ccc(C(F)(F)F)cc3)cc(OCCCN3CCOCC3)c2cc1OC"
  assayed-system: "PC-3 prostate"
  modifier: "="
  TGI / µM: 16.5
- compound: "CC1(C)C=CC[C@]2(C)[C@H]3CC[C@@H]4[C@H]5[C@H](C(=O)/C=C/c6cccnc6)CC[C@]5(CO)CC[C@@]4(C)[C@]3(C)CC[C@@H]12"
  assayed-system: "PC-3 prostate"
  modifier: "="
  TGI / µM: 1.91
- compound: "Nc1c(C(=O)c2ccccc2)sc2nc(-c3cccs3)ccc12"
  assayed-system: "PC-3 prostate"
  modifier: "="
  TGI / µM: 10.1
- compound: "COc1cc(OC2OC(C)C(O)C(O)C2O)cc2oc(-c3ccc(O)cc3)c(CC=C(C)C)c(=O)c12 (centres undefined)"
  assayed-system: "PC-3 prostate"
  modifier: "="
  TGI / µM: 28.4
- compound: "CC[N+](CC)=c1ccc2nc3c(cc(N)c4ccccc43)oc-2c1"
  assayed-system: "PC-3 prostate"
  modifier: "="
  TGI / µM: 6.94

---

Test system: T-47D breast
assay-procedure: NCI tumour cell line growth inhibition, 48 h; in the data active means GI50 below about 0.43 µM; inactive means the rest
Classes used: active, inactive

- molecule: "COc1cc2nc(-c3ccc(C(F)(F)F)cc3)cc(OCCCN3CCOCC3)c2cc1OC"
  assigned-label: "inactive"
- molecule: "Clc1nc(Oc2ccccc2)nc(-c2cn(-c3ccccc3)c3ccccc23)n1"
  assigned-label: "inactive"
- molecule: "Cc1cc(/C=C2\\SC(=Nc3ccccc3)N(C3CCCC3)C2=O)c(C)n1-c1ccc(Cl)cc1"
  assigned-label: "inactive"
- molecule: "COc1cc2c(cc1OCc1ccccc1)N=C[C@@H]1C/C(=C/C(=O)NCCCN3C(=O)c4cccc5cccc(c45)C3=O)CN1C2=O"
  assigned-label: "active"
- molecule: "O=[N+]([O-])c1ccc2[nH]cc(-c3c4ccsc4cc4[nH]c5ccc([N+](=O)[O-])cc5c34)c2c1"
  assigned-label: "inactive"
- molecule: "O=c1ccn(C2OC(CO)C(O)C2O)c(=O)[nH]1 (configuration not stated)"
  assigned-label: "inactive"
- molecule: "Oc1ccc(Br)cc1Sc1cc(Br)ccc1O"
  assigned-label: "inactive"
- molecule: "O=C(Nc1ccccc1C(F)(F)F)c1cccc(NC2=C(Cl)C(=O)N(Cc3ccccc3)C2=O)c1"
  assigned-label: "inactive"
- molecule: "O=C(Nc1ccc(Cl)cc1)Nc1ccc(Cl)c(Cl)c1"
  assigned-label: "inactive"
- molecule: "CC[N+](CCCCCCCCCC[N+](CC)(c1ccccn1)c1ccccn1)(c1ccccn1)c1ccccn1"
  assigned-label: "active"
- molecule: "CCCCNc1nc(NC(C)(C)C)nc(NC(C)(C)C)n1"
  assigned-label: "inactive"
- molecule: "CC(=O)Oc1cc(C)ccc1[C@]1(C)CC[C@H](C)/C1=C\\Br"
  assigned-label: "inactive"

---

Tested on: UACC-257 melanoma
assay-procedure: NCI tumour cell line growth inhibition, 48 h
Reported GI50 values for the following compounds.
measured-property: GI50

- compound: "COc1cc2nc(-c3ccc(C(F)(F)F)cc3)cc(OCCCN3CCOCC3)c2cc1OC"
  assayed-system: "UACC-257 melanoma"
  val: "1.67 µM"
- compound: "CN1CCN(Cc2ccc(NC(=O)c3cncc(C#Cc4cnc(N)c5ccc(F)cc45)c3)cc2C(F)(F)F)CC1"
  assayed-system: "UACC-257 melanoma"
  val: "4.08 µM"
- compound: "COc1cc2c(cc1C)NC(=O)/C2=C\\c1cc(OC)c(OC)c(OC)c1"
  assayed-system: "UACC-257 melanoma"
  val: "91.2 µM"
- compound: "CC1=CC[C@@H]2CC[C@]3(C)[C@H](CC[C@@H]4[C@@]5(C)CCCNC(C)(C)[C@@H]5CC[C@]43C)[C@H]2[C@@H]1C"
  assayed-system: "UACC-257 melanoma"
  val: "1.86 µM"
- compound: "CCOC(=O)[C@@H](C)C[C@H](Cc1ccccc1)NC(=O)c1csc([C@@H](C[C@H](C(C)C)N(C)C(=O)[C@@H](NC(=O)[C@H]2C[C@H](O[Si](C)(C)C(C)(C)C)CCN2C)C(C)C)OC(C)=O)n1"
  assayed-system: "UACC-257 melanoma"
  val: "0.789 µM"
- compound: "S=C(Nc1ccc(-c2nc3ccccc3[nH]2)cc1)NC1CCCCC1"
  assayed-system: "UACC-257 melanoma"
  val: "26.6 µM"
- compound: "CCCCCCC/C=C/[C@H]1O[C@]23C(=O)C[C@@]4(C[C@@H](OC5OC(CO)C(O)C(O)C5O)C[C@@H]4[C@H]2C=C1C)OC3=O (some centres not stated)"
  assayed-system: "UACC-257 melanoma"
  val: "5.21 µM"

---

System: SN12C renal
assay-procedure: NCI tumour cell line growth inhibition, 48 h

- molecule: "N#CCCN(CCCN(C(=O)Nc1ccccc1)c1ccccc1)C(=O)Nc1ccccc1"
  assayed-system: "SN12C renal"
  endpoint-unit: "µM"
  modifier: ">"
  TGI: 100
- molecule: "O=C(Oc1ccc(O)c2c(=O)n3c(cc12)[nH]c1ccccc13)c1ccccc1"
  assayed-system: "SN12C renal"
  endpoint-unit: "µM"
  modifier: "="
  TGI: 54
- molecule: "COC1/C=C/C(C)C(C(C)C(OC)C(C)CCC(=O)C(C)C(CCC(=O)O)OC)OC(=O)/C=C/C=C(\\C)CC(OC)CC2=CC(=O)O[C@@H](C(C)C(OC)CC(OC)/C=C/C(C)C(OC)C1)[C@H]2O (some centres not stated)"
  assayed-system: "SN12C renal"
  endpoint-unit: "µM"
  modifier: ">"
  TGI: 5
- molecule: "COc1ccc2c(c1)CCc1c-2n(CCN(C)C)c2ccc(OC)cc12"
  assayed-system: "SN12C renal"
  endpoint-unit: "µM"
  modifier: ">"
  TGI: 100
- molecule: "C/C=C/[C@H]1O[C@@](OC)([C@@H](C)[C@H](O)[C@H](C)[C@H]2OC(=O)/C(OC)=C/C(C)=C/[C@@H](C)[C@@H](O)[C@@H](C)[C@@H](O)[C@H](C)C/C(C)=C/C=C/[C@@H]2OC)CC(OC2CC(O)C(OC(N)=O)C(C)O2)[C@@H]1C (some centres not stated)"
  assayed-system: "SN12C renal"
  endpoint-unit: "µM"
  modifier: "="
  TGI: 9.3
- molecule: "CC1(C)C=CC[C@]2(C)[C@H]3CC[C@@H]4[C@H]5[C@H](C(=O)/C=C/c6cccnc6)CC[C@]5(CO)CC[C@@]4(C)[C@]3(C)CC[C@@H]12"
  assayed-system: "SN12C renal"
  endpoint-unit: "µM"
  modifier: "="
  TGI: 2.45
- molecule: "NC(N)=N/N=C/c1nc2sccn2c1[N+](=O)[O-]"
  assayed-system: "SN12C renal"
  endpoint-unit: "µM"
  modifier: ">"
  TGI: 100

---

Tested on: NCI-H226 lung
assay-procedure: NCI tumour cell line growth inhibition, 48 h

- compound: "C=CCNC(=S)N1CC(C)C(=O)Nc2ccccc21 (centres undefined)"
  TGI: "> 100 µM"
- compound: "COC(OC)C(O)C1OC=CC1n1cnc2c(N)ncnc21 (centres undefined)"
  TGI: "> 100 µM"
- compound: "Cc1nc2ccc(C(F)(F)F)cc2nc1Nc1ccc(Cl)c(Cl)c1"
  TGI: "39.1 µM"
- compound: "CN1CCN(Cc2ccc(NC(=O)c3cncc(C#Cc4cnc(N)c5ccc(F)cc45)c3)cc2C(F)(F)F)CC1"
  TGI: "6.16 µM"

---

System: SR leukemia
assay-procedure: NCI tumour cell line growth inhibition, 48 h

- molecule: "CCOC(=O)CCC(=O)C1c2cccc(O)c2C(=O)c2c(O)cccc21"
  TGI: "7.29 µM"
- molecule: "Cc1cc2nc3c(C(OC4OC(CO)C(O)C(O)C4O)C(O)CO)nn(-c4ccccc4)c3nc2cc1C (centres undefined)"
  TGI: "> 100 µM"
- molecule: "COc1ccc(-c2c(C3=NCCN3)nnn2-c2ccccc2)cc1"
  TGI: "> 100 µM"
- molecule: "OCCN=C1Nc2ccc(Cl)cc2C(=S)N2CSC[C@@H]12"
  TGI: "> 100 µM"
